The measured values listed here are drawn from patent US10501433B2.

- test-target: KMO mouse enzyme (Mus musculus, UniProt Q91WN4)
- Construct: KMO enzyme prepared at Evotec from mouse liver (4-6 weeks old) via mitochondria isolation; from tissue; host or cells: mouse liver (4-6 weeks old), isolated mitochondria
- Sequence (Q91WN4 whole entry): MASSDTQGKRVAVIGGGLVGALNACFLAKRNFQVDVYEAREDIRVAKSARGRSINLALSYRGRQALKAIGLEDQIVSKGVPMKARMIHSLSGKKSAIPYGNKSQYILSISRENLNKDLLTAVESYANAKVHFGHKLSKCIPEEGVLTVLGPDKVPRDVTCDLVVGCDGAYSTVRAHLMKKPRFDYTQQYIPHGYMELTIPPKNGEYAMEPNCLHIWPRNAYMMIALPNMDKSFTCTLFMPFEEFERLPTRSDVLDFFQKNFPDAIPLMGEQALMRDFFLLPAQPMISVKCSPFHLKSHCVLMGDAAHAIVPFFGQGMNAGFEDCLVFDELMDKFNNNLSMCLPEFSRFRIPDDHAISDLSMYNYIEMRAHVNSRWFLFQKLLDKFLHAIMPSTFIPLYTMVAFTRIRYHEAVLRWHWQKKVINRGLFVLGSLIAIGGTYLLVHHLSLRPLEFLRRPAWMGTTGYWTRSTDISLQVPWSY
- assay-explanation: KMO enzyme assay monitoring L-Kynurenine hydroxylation to 3OH-KYN by LC/MS (protocols substantially similar to Biology Example 3)
- Format: biochemical
- experimental-context: compound at 30 μM; KMO enzyme from mouse liver mitochondria; 100 μM L-Kynurenine
metric: inhibition at 30 µM (%)
Number in %, nothing else.

Take a look at these entries with their results.
>  <compound>
O=C(O)[C@H]1C[C@@H]1C(=O)c1cc(Cl)c2c(c1)CCO2 [Example 1, Method 1]

>  <test-target>
KMO mouse enzyme (Mus musculus, UniProt Q91WN4)

>  <inhibition at 30 µM [%]>
100

$$$$
>  <compound>
O=C(O)[C@H]1C[C@@H]1C(=O)c1ccc2c(c1)CCO2 [Example 2, Method 1]

>  <test-target>
KMO mouse enzyme (Mus musculus, UniProt Q91WN4)

>  <inhibition at 30 µM [%]>
98.7

$$$$
>  <compound>
CC1Cc2cc(C(=O)[C@H]3C[C@@H]3C(=O)O)cc(Cl)c2O1 (stereo partly shown) [Example 1, Method 6]

>  <test-target>
KMO mouse enzyme (Mus musculus, UniProt Q91WN4)

>  <inhibition at 30 µM [%]>
100

$$$$
>  <compound>
O=C(O)[C@H]1C[C@@H]1C(=O)c1ccc2c(c1)CCCO2 [Example 2, Method 4]

>  <test-target>
KMO mouse enzyme (Mus musculus, UniProt Q91WN4)

>  <inhibition at 30 µM [%]>
101

$$$$
>  <compound>
Cn1c(=O)oc2cc(C(=O)[C@H]3C[C@@H]3C(=O)O)cc(Cl)c21 [Example 1, Method 3]

>  <test-target>
KMO mouse enzyme (Mus musculus, UniProt Q91WN4)

>  <inhibition at 30 µM [%]>
93.5

$$$$
>  <compound>
O=C(O)[C@H]1C[C@@H]1C(=O)c1ccc2c(c1)SCCO2 [Example 3, Method 5]

>  <test-target>
KMO mouse enzyme (Mus musculus, UniProt Q91WN4)

>  <inhibition at 30 µM [%]>
101

$$$$

Looking up O=C(O)[C@H]1C[C@@H]1C(=O)c1ccc2c(c1)OCO2 [Example 4, Method 5] , I found its inhibition at 30 µM recorded as 94.1

Looking up Cn1c(=O)oc2c(Cl)cc(C(=O)[C@H]3C[C@@H]3C(=O)O)cc21 [Example 2, Method 3] , I found its inhibition at 30 µM recorded as 101

Looking up CC1(C)Cc2cc(C(=O)[C@H]3C[C@@H]3C(=O)O)ccc2O1 [Example 2, Method 5] , I found its inhibition at 30 µM recorded as 64.8

Looking up O=C(O)[C@H]1C[C@@H]1C(=O)c1cc(Cl)c2c(c1)OCO2 [Example 1, Method 9] , I found its inhibition at 30 µM recorded as 102

Looking up CC1COc2c(Cl)cc(C(=O)[C@H]3C[C@@H]3C(=O)O)cc2C1 (stereo partly shown) [Example 1, Method 7] , I found its inhibition at 30 µM recorded as 101

Looking up O=C(O)[C@H]1C[C@@H]1C(=O)c1cc(Cl)c2c(c1)CCCO2 [Example 1, Method 2] , I found its inhibition at 30 µM recorded as 100

Looking up O=C(O)[C@H]1C[C@@H]1C(=O)c1ccc2c(c1)OCCO2 [Example 1, Method 4] , I found its inhibition at 30 µM recorded as 102

Looking up O=C(O)[C@H]1C[C@@H]1C(=O)c1cc(Cl)c2c(c1)OCCO2 [Example 1, Method 8] , I found its inhibition at 30 µM recorded as 102

Looking up CC1Oc2cc(C(=O)[C@H]3C[C@@H]3C(=O)O)cc(Cl)c2O1 (stereo partly shown) [Example 1, Method 10] , I found its inhibition at 30 µM recorded as 102

Looking up CC1Cc2cc(C(=O)[C@H]3C[C@@H]3C(=O)O)ccc2O1 (stereo partly shown) [Example 1, Method 5] , I found its inhibition at 30 µM recorded as 103
